Data provenance: patent US10780092B2

Target: human recombinant sGC enzyme (Homo sapiens (Human), UniProt Q02108+Q02153)
Assay: SEC competition binding assay with [3H] Compound B radioligand
Settings: displacement of 1.6 nM [3H] Compound B, 24 h at 37° C.
Recorded Ki values for a group of molecules are listed next.

>  <Molecule>
CCCCc1nc(-c2nc(N)c3c(n2)NC(=O)C3(C)c2cccc(O)c2)cn2ncnc12 (centres unmarked)

>  <Ki>
2.92 nM

$$$$
>  <Molecule>
CC1(c2ccc(Cl)c(O)c2)C(=O)Nc2nc(-c3cn4ncnc4c(CCC(F)(F)C(F)(F)F)n3)nc(NCCCC(F)(F)F)c21 (centres unmarked)

>  <Ki>
3.54 nM

$$$$
>  <Molecule>
Cc1cnc(C2(C)C(=O)Nc3nc(-c4cn5ccnc5c(Cc5cccc(F)c5)n4)nc(N)c32)cc1O (centres unmarked)

>  <Ki>
0.155 nM

$$$$
>  <Molecule>
CC1(c2cc(O)c(C#N)c(F)c2)C(=O)Nc2nc(-c3cn4ncnc4c(CC4CCCCC4)n3)nc(N)c21 (centres unmarked)

>  <Ki>
0.158 nM

$$$$
>  <Molecule>
CC1(c2ccc(Cl)c(O)c2)C(=O)Nc2nc(-c3cn4ncnc4c(CCC(F)(F)C(F)(F)F)n3)nc(N)c21 (centres unmarked)

>  <Ki>
2.5 nM

$$$$
>  <Molecule>
CC1(c2cc(O)c(Cl)c(F)c2)C(=O)Nc2nc(-c3cn4ncnc4c(Cc4ccccc4F)n3)nc(N)c21 (centres unmarked)

>  <Ki>
0.128 nM

$$$$
>  <Molecule>
CC1(c2ccc(O)c(Cl)c2)C(=O)Nc2nc(-c3cn4ccnc4c(CCC4CCCCC4)n3)nc(N)c21 (centres unmarked)

>  <Ki>
8.79 nM

$$$$
>  <Molecule>
CC(C)CCc1nc(-c2nc(N)c3c(n2)NC(=O)C3(C)c2cc(O)c(Cl)c(F)c2)cn2ccnc12 (centres unmarked)

>  <Ki>
0.306 nM

$$$$
>  <Molecule>
CC1(c2ccc(Cl)c(O)c2)C(=O)Nc2nc(-c3cn4ccnc4c(Cc4cccc(F)c4)n3)nc(NCC(O)C(F)(F)F)c21 (centres unmarked) [Example 131-AB]

>  <Ki>
0.347 nM

$$$$
>  <Molecule>
CC1(c2cc(O)c(Cl)cn2)C(=O)Nc2nc(-c3cn4ncnc4c(Cc4ccccc4F)n3)nc(N)c21 (centres unmarked)

>  <Ki>
0.261 nM

$$$$
>  <Molecule>
CC1(c2cc(O)c(C#N)c(F)c2)C(=O)Nc2nc(-c3cn4ccnc4c(Cc4ccccc4F)n3)nc(N)c21 (centres unmarked)

>  <Ki>
0.216 nM

$$$$
>  <Molecule>
CC1(c2cc(O)c(Cl)c(F)c2)C(=O)Nc2nc(-c3cn4ccnc4c(CC4CCCCC4)n3)nc(N)c21 (centres unmarked)

>  <Ki>
0.153 nM

$$$$
>  <Molecule>
CC1(c2cc(O)c(C#N)c(Cl)c2)C(=O)Nc2nc(-c3cn4ccnc4c(Cc4cccc(F)c4)n3)nc(N)c21 (centres unmarked)

>  <Ki>
0.333 nM

$$$$
>  <Molecule>
CC1CCC(Cc2nc(-c3nc(N)c4c(n3)NC(=O)C4(C)c3ccc(Cl)c(O)c3)cn3ccnc23)CC1 (centres unmarked) [Example 108-AB]

>  <Ki>
0.524 nM

$$$$

---

Target: human recombinant sGC enzyme (Homo sapiens (Human), UniProt Q02108+Q02153)
Test: SEC competition binding assay with [3H] Compound B radioligand
Conditions: displacement of 1.6 nM [3H] Compound B, 24 h at 37° C.

>  <Compound>
CC1(c2ccc(O)c(F)c2)C(=O)Nc2nc(-c3cn4ccnc4c(CCC(F)(F)C(F)(F)F)n3)nc(N3CC(O)(C(F)(F)F)C3)c21 (stereo not shown) [Example 130-A]

>  <Measurement target>
human recombinant sGC enzyme (Homo sapiens (Human), UniProt Q02108+Q02153)

>  <Units text>
nM

>  <Ki>
7.15

$$$$
>  <Compound>
CC1(c2cccc(O)c2)C(=O)Nc2nc(-c3cn4ccnc4c(Cc4cccc(Cl)c4)n3)nc(N)c21 (stereo not shown) [Example 124-B]

>  <Measurement target>
human recombinant sGC enzyme (Homo sapiens (Human), UniProt Q02108+Q02153)

>  <Units text>
nM

>  <Ki>
2.63

$$$$
>  <Compound>
CC1(c2cccc(O)c2)C(=O)Nc2nc(-c3cn4ccnc4c(Cc4ccc(Cl)cc4)n3)nc(N)c21 (stereo not shown) [Example 56-B]

>  <Measurement target>
human recombinant sGC enzyme (Homo sapiens (Human), UniProt Q02108+Q02153)

>  <Units text>
nM

>  <Ki>
1.24

$$$$
>  <Compound>
CC1(c2ccc(Cl)c(O)c2Cl)C(=O)Nc2nc(-c3cn4ncnc4c(CC4CCCCC4)n3)nc(N)c21 (stereo not shown) [Example 67-A]

>  <Measurement target>
human recombinant sGC enzyme (Homo sapiens (Human), UniProt Q02108+Q02153)

>  <Units text>
nM

>  <Ki>
2.65

$$$$
>  <Compound>
CC1(c2ccc(O)cc2)C(=O)Nc2nc(-c3cn4ccnc4c(CCC4CCCCC4)n3)nc(N)c21 (stereo not shown) [Example 85-B]

>  <Measurement target>
human recombinant sGC enzyme (Homo sapiens (Human), UniProt Q02108+Q02153)

>  <Units text>
nM

>  <Ki>
4.82

$$$$
>  <Compound>
CC1(c2ccc(O)c(F)c2)C(=O)Nc2nc(-c3cn4ncnc4c(Cc4ccc(F)cc4)n3)nc(N)c21 (stereo not shown) [Example 41-B]

>  <Measurement target>
human recombinant sGC enzyme (Homo sapiens (Human), UniProt Q02108+Q02153)

>  <Units text>
nM

>  <Ki>
0.49

$$$$
>  <Compound>
CC1(c2cc(O)c(Cl)cn2)C(=O)Nc2nc(-c3cn4ccnc4c(Cc4cccc(F)c4)n3)nc(N)c21 (stereo not shown) [Example 51-B]

>  <Measurement target>
human recombinant sGC enzyme (Homo sapiens (Human), UniProt Q02108+Q02153)

>  <Units text>
nM

>  <Ki>
0.874

$$$$
>  <Compound>
CC1(c2ccc(F)c(O)c2)C(=O)Nc2nc(-c3cn4ccnc4c(CCC(F)(F)C(F)(F)F)n3)nc(N3CC(O)(C(F)(F)F)C3)c21 (stereo not shown) [Example 129-B]

>  <Measurement target>
human recombinant sGC enzyme (Homo sapiens (Human), UniProt Q02108+Q02153)

>  <Units text>
nM

>  <Ki>
2

$$$$
>  <Compound>
CC1(c2cccc(O)c2)C(=O)Nc2nc(-c3cn4ccnc4c(Cc4ccc(F)cc4)n3)nc(N3CCC(F)(F)CC3)c21 (stereo not shown) [Example 135-B]

>  <Measurement target>
human recombinant sGC enzyme (Homo sapiens (Human), UniProt Q02108+Q02153)

>  <Units text>
nM

>  <Ki>
4.01

$$$$
>  <Compound>
CC1(c2ccc(O)c(Cl)c2)C(=O)Nc2nc(-c3cn4ncnc4c(Cc4ccc(F)cc4)n3)nc(N)c21 (stereo not shown) [Example 66-B]

>  <Measurement target>
human recombinant sGC enzyme (Homo sapiens (Human), UniProt Q02108+Q02153)

>  <Units text>
nM

>  <Ki>
2.57

$$$$
>  <Compound>
CC1(c2ccc(Cl)c(O)c2)C(=O)Nc2nc(-c3cn4ccnc4c(Cc4ccc(Cl)cc4)n3)nc(N)c21 (stereo not shown) [Example 44-A]

>  <Measurement target>
human recombinant sGC enzyme (Homo sapiens (Human), UniProt Q02108+Q02153)

>  <Units text>
nM

>  <Ki>
0.507

$$$$
>  <Compound>
CCCCc1nc(-c2nc(N)c3c(n2)NC(=O)C3(C)c2ccc(Cl)c(O)c2)cn2ccnc12 (stereo not shown) [Example 52-A]

>  <Measurement target>
human recombinant sGC enzyme (Homo sapiens (Human), UniProt Q02108+Q02153)

>  <Units text>
nM

>  <Ki>
0.864

$$$$
>  <Compound>
CC1(c2ccc(C(F)(F)F)c(O)c2)C(=O)Nc2nc(-c3cn4ccnc4c(Cc4cc(F)cc(F)c4F)n3)nc(N)c21 (stereo not shown) [Example 33-B]

>  <Measurement target>
human recombinant sGC enzyme (Homo sapiens (Human), UniProt Q02108+Q02153)

>  <Units text>
nM

>  <Ki>
0.312

$$$$
>  <Compound>
CC1(c2ccc(O)c(F)c2)C(=O)Nc2nc(-c3cn4ccnc4c(Cc4cccc(Cl)c4)n3)nc(N)c21 (stereo not shown) [Example 126-B]

>  <Measurement target>
human recombinant sGC enzyme (Homo sapiens (Human), UniProt Q02108+Q02153)

>  <Units text>
nM

>  <Ki>
1.1

$$$$
>  <Compound>
CC1(c2ccc(O)c(Cl)c2)C(=O)Nc2nc(-c3cn4ccnc4c(Cc4ccc(F)cc4)n3)nc(N)c21 (stereo not shown) [Example 60-B]

>  <Measurement target>
human recombinant sGC enzyme (Homo sapiens (Human), UniProt Q02108+Q02153)

>  <Units text>
nM

>  <Ki>
1.92

$$$$
>  <Compound>
CC1(c2ccc(Cl)c(O)c2)C(=O)Nc2nc(-c3cn4ccnc4c(Cc4cccc(F)c4)n3)nc(N)c21 (stereo not shown) [Example 1-A]

>  <Measurement target>
human recombinant sGC enzyme (Homo sapiens (Human), UniProt Q02108+Q02153)

>  <Units text>
nM

>  <Ki>
0.095

$$$$
>  <Compound>
Cc1cc(C2(C)C(=O)Nc3nc(-c4cn5ccnc5c(Cc5cccc(F)c5)n4)nc(N)c32)ccc1O (stereo not shown) [Example 45-A]

>  <Measurement target>
human recombinant sGC enzyme (Homo sapiens (Human), UniProt Q02108+Q02153)

>  <Units text>
nM

>  <Ki>
0.565

$$$$
>  <Compound>
CC1(c2cc(O)c(Cl)cn2)C(=O)Nc2nc(-c3cn4ccnc4c(Cc4cc(F)cc(F)c4)n3)nc(N)c21 (stereo not shown) [Example 40-B]

>  <Measurement target>
human recombinant sGC enzyme (Homo sapiens (Human), UniProt Q02108+Q02153)

>  <Units text>
nM

>  <Ki>
0.479

$$$$
>  <Compound>
CC1(c2cc(O)c(Cl)cn2)C(=O)Nc2nc(-c3cn4ccnc4c(Cc4c(F)cccc4F)n3)nc(N)c21 (stereo not shown) [Example 98-B]

>  <Measurement target>
human recombinant sGC enzyme (Homo sapiens (Human), UniProt Q02108+Q02153)

>  <Units text>
nM

>  <Ki>
8.31

$$$$
>  <Compound>
CC1(c2cc(O)c(Cl)cn2)C(=O)Nc2nc(-c3cn4ccnc4c(Cc4ccccc4F)n3)nc(N)c21 (stereo not shown) [Example 4-B]

>  <Measurement target>
human recombinant sGC enzyme (Homo sapiens (Human), UniProt Q02108+Q02153)

>  <Units text>
nM

>  <Ki>
0.259

$$$$
>  <Compound>
CC1(c2cc(O)c(Cl)cn2)C(=O)Nc2nc(-c3cn4ccnc4c(CC4CCCCC4)n3)nc(N)c21 (stereo not shown) [Example 93-B]

>  <Measurement target>
human recombinant sGC enzyme (Homo sapiens (Human), UniProt Q02108+Q02153)

>  <Units text>
nM

>  <Ki>
0.374

$$$$
>  <Compound>
CC1(c2ccc(Cl)c(O)c2)C(=O)Nc2nc(-c3cn4ccnc4c(CC4CCC(F)(F)CC4)n3)nc(N)c21 (stereo not shown) [Example 95-A]

>  <Measurement target>
human recombinant sGC enzyme (Homo sapiens (Human), UniProt Q02108+Q02153)

>  <Units text>
nM

>  <Ki>
14.4

$$$$
>  <Compound>
CC1(c2nccc(O)c2Cl)C(=O)Nc2nc(-c3cn4ccnc4c(Cc4cc(F)cc(F)c4)n3)nc(N)c21 (stereo not shown) [Example 111-B]

>  <Measurement target>
human recombinant sGC enzyme (Homo sapiens (Human), UniProt Q02108+Q02153)

>  <Units text>
nM

>  <Ki>
1.74

$$$$
>  <Compound>
CC(C)CCc1nc(-c2nc(N)c3c(n2)NC(=O)C3(C)c2ccc(C(F)(F)F)c(O)c2)cn2ccnc12 (stereo not shown) [Example 64-B]

>  <Measurement target>
human recombinant sGC enzyme (Homo sapiens (Human), UniProt Q02108+Q02153)

>  <Units text>
nM

>  <Ki>
2.22

$$$$
>  <Compound>
CC1(c2cc(O)c(C#N)c(Cl)c2)C(=O)Nc2nc(-c3cn4ccnc4c(CC4CCCCC4)n3)nc(N)c21 (stereo not shown) [Example 142-A]

>  <Measurement target>
human recombinant sGC enzyme (Homo sapiens (Human), UniProt Q02108+Q02153)

>  <Units text>
nM

>  <Ki>
1.14

$$$$
>  <Compound>
CC1(c2cccc(O)c2)C(=O)Nc2nc(-c3cn4ccnc4c(Cc4cccc(F)c4)n3)nc(N)c21 (stereo not shown) [Example 121-B]

>  <Measurement target>
human recombinant sGC enzyme (Homo sapiens (Human), UniProt Q02108+Q02153)

>  <Units text>
nM

>  <Ki>
0.382

$$$$
>  <Compound>
CC1(c2cc(O)c(Cl)cn2)C(=O)Nc2nc(-c3cn4ncnc4c(CC4CCCCC4)n3)nc(N)c21 (stereo not shown) [Example 105-B]

>  <Measurement target>
human recombinant sGC enzyme (Homo sapiens (Human), UniProt Q02108+Q02153)

>  <Units text>
nM

>  <Ki>
0.213

$$$$
>  <Compound>
CCCCc1nc(-c2nc(N)c3c(n2)NC(=O)C3(C)c2ccc(O)c(Cl)c2)cn2ncnc12 (stereo not shown) [Example 74-B]

>  <Measurement target>
human recombinant sGC enzyme (Homo sapiens (Human), UniProt Q02108+Q02153)

>  <Units text>
nM

>  <Ki>
6.17

$$$$
